Documented IC50 at 72 h across a set of compounds
# Protocol: 72-h MTT cellular proliferation assay, W138
# Format: cell-based
# Experimental setup: human, W138 cells (non-transformed); non-transformed cell line W138, 72-h MTT; read-out: Cytotoxicity (IC50, μM) W138
Endpoint: IC50 at 72 h (µM)

{"columns": ["Compound", "Readout number"],
 "data": [
  ["Cc1[nH]c(C#N)c(C)c1-c1ccnc(Nc2ccc(F)cc2)n1 [Compound 32]", 9.6],
  ["Cc1[nH]c(C#N)c(C)c1-c1ccnc(Nc2ccc(I)cc2)n1 [Compound 35]", 21.3]
]}

---

# Measurement target: CDK2/cyclin E (Homo sapiens, UniProt P24941)
# Construct: His; made in house; host or cells: Sf9 insect cells (baculovirus)
# Protocol: CDK2/Cyclin E kinase assay (GST-Rb phosphorylation, radiolabelled ATP);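 note: enzyme was His-tagged CDK2/cyclin E co-expressed in baculovirus-infected Sf9 insect cells and purified over a metal-chelate column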
# Assay type: biochemical
# Experimental setup: read-out: CDK2/cyclin E (IC50)
pIC50: −log10 of the molar value.
Documented pIC50 across a set of compounds

{"columns": ["Smiles str", "pIC50"],
 "data": [
  ["Cc1c[nH]c(C)c1-c1ccnc(Nc2ccc(Cl)cc2)n1", 5.77],
  ["Cc1c[nH]c(C)c1-c1ccnc(Nc2ccc(F)c(F)c2)n1", 5.89],
  ["Cc1cn(C)c(C)c1-c1ccnc(Nc2ccc(F)cc2)n1", 5.75],
  ["Cc1c[nH]c(C)c1-c1ccnc(Nc2ccc(C(F)(F)F)cc2)n1", 6.05],
  ["Cc1c[nH]c(C)c1-c1ccnc(Nc2cccc(O)c2)n1", 5.85],
  ["Cc1c[nH]c(C)c1-c1ccnc(Nc2ccc(O)cc2)n1", 5.54],
  ["Cc1[nH]c(CN2CCOCC2)c(C)c1-c1ccnc(Nc2ccc(F)cc2)n1", 6.06],
  ["Cc1c[nH]c(C)c1-c1ccnc(Nc2ccc(F)cc2)n1", 6.00],
  ["Cc1c[nH]c(C)c1-c1ccnc(Nc2cc(F)cc(F)c2)n1", 5.89],
  ["Cc1cc(Nc2nccc(-c3c(C)[nH]c(C#N)c3C)n2)ccc1Cl", 5.99],
  ["Cc1[nH]c(CN2CCN(C)CC2)c(C)c1-c1ccnc(Nc2ccc(F)cc2)n1", 5.82],
  ["CCN(CC)Cc1[nH]c(C)c(-c2ccnc(Nc3ccc(F)cc3)n2)c1C", 6.06],
  ["Cc1c[nH]c(C)c1-c1ccnc(Nc2ccc(I)cc2)n1", 6.30],
  ["Cc1c[nH]c(C)c1-c1ccnc(Nc2ccc(I)c(F)c2)n1", 5.76],
  ["Cc1c[nH]c(C)c1-c1ccnc(Nc2ccc(I)c(Cl)c2)n1", 5.82]
]}

---

Documented IC50 at 72 h across a set of compounds
# Protocol: 72-h MTT cellular proliferation assay, Hs27
# Format: cell-based
# Experimental setup: human, Hs27 cells (non-transformed); non-transformed cell line Hs27, 72-h MTT; read-out: Cytotoxicity (IC50, μM) Hs27

{"columns": ["Compound", "IC50 at 72 h"],
 "data": [
  ["Cc1[nH]c(C#N)c(C)c1-c1ccnc(Nc2ccc(F)cc2)n1 [Compound 32]", "15.1 µM"],
  ["Cc1[nH]c(C#N)c(C)c1-c1ccnc(Nc2ccc(I)cc2)n1 [Compound 35]", "35.1 µM"]
]}

---

Documented IC50 at 72 h across a set of compounds
# Protocol: 72-h MTT cellular proliferation assay, IMR90
# Type: cell-based
# Experimental setup: human, IMR90 cells (non-transformed); non-transformed cell line IMR90, 72-h MTT; read-out: Cytotoxicity (IC50, μM) IMR90

{"columns": ["Smiles str", "IC50 at 72 h"],
 "data": [
  ["Cc1[nH]c(C#N)c(C)c1-c1ccnc(Nc2ccc(F)cc2)n1", "20.8 µM"],
  ["Cc1[nH]c(C#N)c(C)c1-c1ccnc(Nc2ccc(I)cc2)n1", "37.3 µM"]
]}

---

Endpoint: melting point

{"columns": ["Molecule", "Endpoint", "Result"],
 "data": [
  ["Cc1c[nH]c(C)c1-c1ccnc(Nc2ccc(F)cc2F)n1 [Compound 9]", "melting point", "219 to 220 °C"],
  ["Cc1c[nH]c(C)c1-c1ccnc(Nc2ccc(Cl)c(C(F)(F)F)c2)n1 [Compound 11]", "melting point", "187.7 to 190.7 °C"],
  ["Cc1c[nH]c(C)c1-c1ccnc(Nc2cccc(O)c2)n1 [Compound 8]", "melting point", "169 to 174.6 °C"],
  ["Cc1[nH]c(C#N)c(C)c1-c1ccnc(Nc2ccc(C(F)(F)F)cc2)n1 [Compound 34]", "melting point", "195.6 to 198.9 °C"],
  ["Cc1c[nH]c(C)c1-c1ccnc(Nc2cccc(C(F)(F)F)c2)n1 [Compound 13]", "melting point", "152.7 to 154.3 °C"],
  ["Cc1[nH]c([N+](=O)[O-])c(C)c1-c1ccnc(Nc2ccc(N(C)C)cc2)n1 [Compound 48]", "melting point", "265 to 268 °C"],
  ["Cc1c[nH]c(C)c1-c1ccnc(Nc2ccc(Cl)cc2Cl)n1 [Compound 10]", "melting point", "158.5 to 159.7 °C"],
  ["Cc1c[nH]c(C)c1-c1ccnc(Nc2ccc(Cl)cc2)n1 [Compound 5]", "melting point", "219 to 223 °C"],
  ["Cc1[nH]c(Br)c(C)c1-c1ccnc(Nc2cccc([N+](=O)[O-])c2)n1 [Compound 51]", "melting point", "198.1 to 203 °C"]
]}
